Molecular target: full-length human Notch3 expressed on the cell surface (human, UniProt Q9UM47 40-2321)
Sequence (Q9UM47 40-2321): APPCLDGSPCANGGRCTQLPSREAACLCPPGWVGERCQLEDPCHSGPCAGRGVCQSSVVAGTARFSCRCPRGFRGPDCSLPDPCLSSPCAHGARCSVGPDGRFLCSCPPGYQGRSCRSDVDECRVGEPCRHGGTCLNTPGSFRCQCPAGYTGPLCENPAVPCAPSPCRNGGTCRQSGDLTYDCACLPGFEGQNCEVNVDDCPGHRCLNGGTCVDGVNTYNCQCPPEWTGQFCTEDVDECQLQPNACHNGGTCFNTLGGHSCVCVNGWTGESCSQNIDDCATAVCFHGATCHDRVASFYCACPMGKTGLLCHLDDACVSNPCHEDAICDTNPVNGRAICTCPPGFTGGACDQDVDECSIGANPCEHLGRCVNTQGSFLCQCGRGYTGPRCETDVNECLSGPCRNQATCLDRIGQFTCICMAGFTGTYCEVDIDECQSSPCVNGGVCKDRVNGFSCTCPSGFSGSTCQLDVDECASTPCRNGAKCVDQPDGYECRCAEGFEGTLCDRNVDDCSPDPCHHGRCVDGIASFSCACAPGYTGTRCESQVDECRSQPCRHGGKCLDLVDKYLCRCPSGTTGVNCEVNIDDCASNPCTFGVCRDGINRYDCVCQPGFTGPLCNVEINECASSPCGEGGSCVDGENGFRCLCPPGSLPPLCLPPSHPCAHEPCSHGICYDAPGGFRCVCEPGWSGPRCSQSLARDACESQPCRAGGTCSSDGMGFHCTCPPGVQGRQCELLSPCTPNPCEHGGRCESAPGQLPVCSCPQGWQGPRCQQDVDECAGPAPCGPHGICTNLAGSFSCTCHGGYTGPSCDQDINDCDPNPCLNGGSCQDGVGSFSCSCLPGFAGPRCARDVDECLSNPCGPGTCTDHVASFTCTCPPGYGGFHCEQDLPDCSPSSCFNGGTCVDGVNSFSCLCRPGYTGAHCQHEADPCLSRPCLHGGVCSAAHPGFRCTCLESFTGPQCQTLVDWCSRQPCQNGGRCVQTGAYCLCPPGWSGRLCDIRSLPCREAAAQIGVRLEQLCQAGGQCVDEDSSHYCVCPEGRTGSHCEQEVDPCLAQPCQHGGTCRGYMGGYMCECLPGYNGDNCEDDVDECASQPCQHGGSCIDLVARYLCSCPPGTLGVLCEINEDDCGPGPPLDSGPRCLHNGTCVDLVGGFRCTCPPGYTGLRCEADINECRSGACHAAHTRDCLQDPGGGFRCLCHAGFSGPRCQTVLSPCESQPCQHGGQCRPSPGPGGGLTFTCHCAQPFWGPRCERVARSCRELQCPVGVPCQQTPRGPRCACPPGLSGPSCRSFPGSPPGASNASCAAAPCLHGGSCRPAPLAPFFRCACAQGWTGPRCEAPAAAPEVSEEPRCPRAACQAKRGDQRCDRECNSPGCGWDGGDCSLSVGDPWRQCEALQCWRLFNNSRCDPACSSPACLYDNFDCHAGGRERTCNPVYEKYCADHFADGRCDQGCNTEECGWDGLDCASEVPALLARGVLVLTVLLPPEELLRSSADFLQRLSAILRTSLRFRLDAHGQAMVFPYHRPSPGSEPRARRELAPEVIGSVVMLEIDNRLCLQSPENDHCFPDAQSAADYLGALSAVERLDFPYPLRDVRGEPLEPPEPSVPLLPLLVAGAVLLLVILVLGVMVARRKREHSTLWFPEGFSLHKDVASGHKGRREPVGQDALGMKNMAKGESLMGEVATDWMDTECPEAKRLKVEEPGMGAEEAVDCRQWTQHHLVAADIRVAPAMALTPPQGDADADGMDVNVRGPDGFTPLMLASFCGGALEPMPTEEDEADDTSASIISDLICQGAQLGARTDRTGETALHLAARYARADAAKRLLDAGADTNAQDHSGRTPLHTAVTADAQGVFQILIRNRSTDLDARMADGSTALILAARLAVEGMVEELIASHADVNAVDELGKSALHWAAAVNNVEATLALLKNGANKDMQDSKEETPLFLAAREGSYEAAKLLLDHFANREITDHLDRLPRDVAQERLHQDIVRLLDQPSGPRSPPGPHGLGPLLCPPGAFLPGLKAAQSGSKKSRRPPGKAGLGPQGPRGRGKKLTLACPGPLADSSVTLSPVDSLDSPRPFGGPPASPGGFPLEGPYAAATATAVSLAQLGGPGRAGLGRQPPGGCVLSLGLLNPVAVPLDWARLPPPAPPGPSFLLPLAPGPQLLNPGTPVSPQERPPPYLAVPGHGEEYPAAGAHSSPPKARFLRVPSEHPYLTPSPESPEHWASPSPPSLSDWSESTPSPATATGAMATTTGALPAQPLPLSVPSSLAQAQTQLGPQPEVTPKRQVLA
Assay: cell-based or functional assay
Assign IC50 of cytotoxicity (MTS viability), OVCAR3 cells to each entry below.
Enter your answer as a number in ng Ab/mL; do not include the unit.

Look up IC50 of cytotoxicity (MTS viability), OVCAR3 cells: hu28-vc6780 (Notch3-28-v1010-hG1-(C)_mcValCitPABC-#112) (antibody, human IgG1, kappa, V domains shown, vc6780 linker-payload on cysteine residues after partial reduction; sites not specified, Antibody-drug conjugate of hu28) VH: EVQLVESGGGLVQPGGSLRLSCAASGFTFRDYGMTWVRQAPGKGLEWVAYISSGSNYIYYAEAVKGRFTISRDNAKNSLYLQMNSLRAEDTAVYYCARRGPFVLDAWGQGTLVTVSS VL: DIQMTQSPSSLSASVGDRVTITCKASQSINRYLHWYQQKPGKAPKLLIYNANGLQTGVPSRFSGSGSGTDFTLTISSLQPEDFATYYCLQHNTWPDTFGGGTKVEIKR
17

Look up IC50 of cytotoxicity (MTS viability), OVCAR3 cells: hu75-vc6780 (Notch3-75-v1913-hG1-(C)_mcValCitPABC-#112) (antibody, human IgG1, kappa, V domains shown, vc6780 linker-payload on cysteine residues after partial reduction; sites not specified, Antibody-drug conjugate of hu75) VH: EVQLVESGGGLVQPGGSLRLSCAASGYAFTDYWMTWVRQAPGKGLEWVAEISPNSGGTNFNEKFKGRFTISVDNAKNSLYLQMNSLRAEDTAVYYCARGEIRYNWFAYWGQGTLVTVSS VL: DIQMTQSPSSLSASVGDRVTITCKASQNVGNNIAWYQQKPGKAPKLLIYYASNRYTGVPSRFSGSGYGTDFTLTISSLQPEDFATYYCQRLYNSPFTFGGGTKVEIKR
254

Look up IC50 of cytotoxicity (MTS viability), OVCAR3 cells: hu75-vc0101 (Notch3-75-v1913-hG1-(C)_mcValCitPABC-#54) (antibody, human IgG1, kappa, V domains shown, vc0101 linker-payload on cysteine residues after partial reduction; sites not specified, Antibody-drug conjugate of hu75) VH: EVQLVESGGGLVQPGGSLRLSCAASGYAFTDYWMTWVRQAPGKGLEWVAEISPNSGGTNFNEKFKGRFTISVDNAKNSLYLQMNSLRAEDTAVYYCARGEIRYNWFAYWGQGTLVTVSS VL: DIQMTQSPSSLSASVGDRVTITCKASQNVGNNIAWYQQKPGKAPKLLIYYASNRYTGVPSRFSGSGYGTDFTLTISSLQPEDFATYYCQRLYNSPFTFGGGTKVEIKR
515

Look up IC50 of cytotoxicity (MTS viability), OVCAR3 cells: hu28-vc0101 (Notch3-28-v1010-hG1-(C)_mcValCitPABC-#54) (antibody, human IgG1, kappa, V domains shown, vc0101 linker-payload on cysteine residues after partial reduction; sites not specified, Antibody-drug conjugate of hu28) VH: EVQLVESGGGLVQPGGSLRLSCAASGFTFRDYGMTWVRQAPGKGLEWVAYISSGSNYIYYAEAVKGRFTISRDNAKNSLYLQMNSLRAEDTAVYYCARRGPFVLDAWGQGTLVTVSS VL: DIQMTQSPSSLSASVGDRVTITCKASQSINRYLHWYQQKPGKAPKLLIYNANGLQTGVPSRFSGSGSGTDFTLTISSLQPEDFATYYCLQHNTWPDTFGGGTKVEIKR
306
